SYSTEM: HLA-B*0702 (human)
ASSAY_OVERVIEW: inhibition of 125I probe peptide, purified HLA
pIC50: −log10 of the molar value.
Assign y whenever pIC50 does not fall below 7; assign n whenever it does.

Problem: Item FPQQHTQVI [CEA.632.F1I9] with pIC50 of 7 or above?
Result: y

Problem: Item FPHRWCIPI [CEA.7.F1I9] with pIC50 of 7 or above?
Result: y

Problem: Item FPNNNGTI [CEA.646.F1] with pIC50 of 7 or above?
Result: n

Problem: Item FPQHLFGI [CEA.58.F1, 8 AA] with pIC50 of 7 or above?
Result: n

Problem: Item FPWQRLLLTI [CEA.13.F1I10] with pIC50 of 7 or above?
Result: n
